Tgt: T1, natriuretic peptide receptor-B (human)
T1 chain: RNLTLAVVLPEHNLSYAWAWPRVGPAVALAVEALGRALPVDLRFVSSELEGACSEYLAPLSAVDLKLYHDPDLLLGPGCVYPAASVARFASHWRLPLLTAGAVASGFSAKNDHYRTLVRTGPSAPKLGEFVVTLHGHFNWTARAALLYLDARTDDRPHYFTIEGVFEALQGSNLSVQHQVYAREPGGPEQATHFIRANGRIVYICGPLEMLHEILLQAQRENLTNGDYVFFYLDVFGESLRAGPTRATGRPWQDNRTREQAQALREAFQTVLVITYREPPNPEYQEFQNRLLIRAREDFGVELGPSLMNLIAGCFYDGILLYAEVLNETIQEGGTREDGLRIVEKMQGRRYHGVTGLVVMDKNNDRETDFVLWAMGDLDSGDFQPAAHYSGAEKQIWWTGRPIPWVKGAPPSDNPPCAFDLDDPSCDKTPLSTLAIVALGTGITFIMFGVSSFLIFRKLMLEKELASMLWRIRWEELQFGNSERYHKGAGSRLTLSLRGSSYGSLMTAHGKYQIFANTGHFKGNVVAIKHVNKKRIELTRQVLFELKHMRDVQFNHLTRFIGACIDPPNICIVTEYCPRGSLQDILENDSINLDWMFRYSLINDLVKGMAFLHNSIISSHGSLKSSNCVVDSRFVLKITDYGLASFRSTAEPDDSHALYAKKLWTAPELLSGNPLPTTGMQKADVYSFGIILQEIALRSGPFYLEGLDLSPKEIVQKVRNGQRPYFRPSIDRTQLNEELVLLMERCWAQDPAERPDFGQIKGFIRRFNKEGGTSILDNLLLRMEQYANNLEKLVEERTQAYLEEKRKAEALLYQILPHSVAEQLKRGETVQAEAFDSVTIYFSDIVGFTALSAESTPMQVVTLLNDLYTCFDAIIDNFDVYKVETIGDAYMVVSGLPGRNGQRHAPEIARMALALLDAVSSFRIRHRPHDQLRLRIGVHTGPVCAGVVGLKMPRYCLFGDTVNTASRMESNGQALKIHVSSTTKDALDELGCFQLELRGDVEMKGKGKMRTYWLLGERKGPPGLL
Assay Explanation: cell-based or functional assay
Numbered stars: 1 amine (or outer) side, 2 acyl side, 3 side chain; on linkers, the order of the positions; unused ones are H or OH. Square brackets hold non-standard residues; d marks the D form. Ends that are not written are not given here. * marks the point of attachment. Gluc‑Aoa = (2,3,4,5,6-pentahydroxyhexylidenaminooxy)-acetic acid; Sni = (S)-nipecotic acid, O=C([C@H]1CCCN([*:1])C1)[*:2]; Phe(3,4-Cl2) = N[C@@H](Cc1ccc(Cl)c(Cl)c1)C(=O)O; dDap(Me2) = CN(C)C[C@@H](N)C(=O)O; Hyp = O=C(O)[C@@H]1C[C@@H](O)CN1; dAoc(2) = CCCCCC[C@@H](N)C(=O)O; NMeD = CN[C@@H](CC(=O)O)C(=O)O; NMeL = CN[C@@H](CC(C)C)C(=O)O; dNle = CCCC[C@@H](N)C(=O)O; Pip = O=C(O)[C@@H]1CCCCN1; Octanoyl = CCCCCCCC(=O)*; 3806 = not defined here; hse = not defined here; Occ = octanoic acid
Parameter: EC50 group, cGMP in GTM-3 cells

Known EC50 group, cGMP in GTM-3 cells results, listed for orientation:
>  <Binder>
Octanoyl-[dA][dA]FGLKLDR[3806] (reading uncertain; also: printed as Occ-ala-ala-Phe-Gly-Leu-Lys-Leu-Asp-Arg-3806) [JAL-0751]

>  <EC50 group, cGMP in GTM-3 cells>
≤ 15 µM

$$$$
>  <Binder>
{Gluc‑Aoa}-[dAoc(2)][Sni]FLL[Hyp][NMeL]DRI-NH2 (not fully specified (some residues); printed as Gluc-Aoa-hgl-Sni-Phe-leu-Leu-Hyp-Nml-Asp-Arg-Ile-NH2) [JAL-1803]

>  <EC50 group, cGMP in GTM-3 cells>
≤ 1 µM

$$$$
>  <Binder>
[Occ][Sni]F[dDap(Me2)]L[Hyp][NMeL][NMeD]RI-NH2 [JAL-1577]

>  <EC50 group, cGMP in GTM-3 cells>
≤ 15 µM

$$$$

# lookup: EC50 group, cGMP in GTM-3 cells of [Occ][Sni][Phe(3,4-Cl2)]LL[Hyp][NMeL]DRI-NH2 (not fully specified (residue 4); printed as Occ-Sni-Eaa-leu-Leu-Hyp-Nml-Asp-Arg-Ile-NH2) [JAL-1496]
≤ 1 µM

What about this binder? [Occ][Sni]F[hse]L[Hyp][NMeL]DRI-NH2 (reading uncertain; also: printed as Occ-Sni-Phe-hse-Leu-Hyp-Nml-Asp-Arg-Ile-NH2) [JAL-1878]
≤ 5 µM

Also Octanoyl-[dA]F[dR]L[Hyp][Pip]DRI-NH2 [JAL-1365] , if possible.
≤ 15 µM

// same read-out, input: Octanoyl-[dA]F[dNle]L[Hyp][NMeL]DRI-NH2 [JAL-1044]
≤ 1 µM

Entry to check: Octanoyl-[Sni]F[dL]L[Hyp][NMeL]VRI-NH2 [JAL-1399]
≤ 5 µM

Now give it for Octanoyl-[Sni]FHL[Hyp][NMeL]DRI-NH2 (not fully specified (some residues); printed as Occ-Sni-Phe-his-Leu-Hyp-Nml-Asp-Arg-Ile-NH2) [JAL-1884] too.
≤ 5 µM

Please give the result for Octanoyl-[Sni]F[dNle]L[Hyp]LDRI-NH2 [JAL-1024] too.
≤ 1 µM
